- PROTOCOL: amyloid nucleation score (Sup35N fusion, yeast selection) (log enrichment); library NNK2; higher = more nucleation; inactive = no reads after selection;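 also: zero at mode of non-aggregating sequences after 7 days selection at 30°C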
PROPERTY NAME: amyloid nucleation score
Give a plain numeric answer without units written out.

Here is how some substances turned out for amyloid nucleation score.
SUBSTANCE: ATVRFWWKFVYACGMAWWWV
ENDPOINT RESULT: 0.001
//
SUBSTANCE: VLSLHDSVLLYRSAGIRYGW
ENDPOINT RESULT: 5.03
//
SUBSTANCE: LYKSGA
ENDPOINT RESULT: -0.574
//
SUBSTANCE: ALFRPEYRFM
ENDPOINT RESULT: 2.64
//
SUBSTANCE: GYDLYLTEWRSVFTAVIANE
ENDPOINT RESULT: -0.055

## Input Please indicate amyloid nucleation score recorded for YVPPIGGNRHAHLVASCLGS
## Output 0.434

* * *

- PROTOCOL: amyloid nucleation score (Sup35N fusion, yeast selection) (log enrichment); library NNK3; higher = more nucleation; inactive = no reads after selection
PROPERTY NAME: amyloid nucleation score

SEQUENCE ENTRY: NCIAFGWLWSELRN
PROPERTY NAME: amyloid nucleation score
ENDPOINT RESULT: inactive
//
SEQUENCE ENTRY: LPICDQTIWFLPSRAVAGNV
PROPERTY NAME: amyloid nucleation score
ENDPOINT RESULT: inactive
//
SEQUENCE ENTRY: HFQCLMSVRSGSNQTRDILL
PROPERTY NAME: amyloid nucleation score
ENDPOINT RESULT: 1.28
//
SEQUENCE ENTRY: VFLKTVAKQFCLANVKRSH
PROPERTY NAME: amyloid nucleation score
ENDPOINT RESULT: inactive
//
SEQUENCE ENTRY: CASCEVFMLR
PROPERTY NAME: amyloid nucleation score
ENDPOINT RESULT: inactive
//
SEQUENCE ENTRY: HSIIVEWKC
PROPERTY NAME: amyloid nucleation score
ENDPOINT RESULT: inactive

## Input Complete the entry with amyloid nucleation score for LFGYSNSRRHMIGMQSY
## Output inactive

## Input Let me know recorded amyloid nucleation score for DNCCKLARVLAWFVFNRLNR , thanks.
## Output inactive

## Input # return recorded amyloid nucleation score for input RNTLARKFVIRFTIFNAWSN
## Output 1.28

## Input Give amyloid nucleation score for the following sequence: DMLHLWYLSVG
## Output inactive

## Input Return value of amyloid nucleation score for input YCSIMYVCNKILFNAAKARL , no commentary.
## Output inactive

* * *

- PROTOCOL: amyloid nucleation score (Sup35N fusion, yeast selection) (log enrichment); library NNK1; higher = more nucleation; inactive = no reads after selection
Would you mind labelling by amyloid nucleation score? At or over 0.1 is condition met, under is condition not met.

SUBSTANCE: QAFSNESVTRDLLCG
ASSIGNED LABEL: condition not met
//
SUBSTANCE: TSRRAEYRWSYQEKSGSSRS
ASSIGNED LABEL: condition met
//
SUBSTANCE: YGVEMLPHISNAVTLFFGN
ASSIGNED LABEL: condition met
//
SUBSTANCE: SEDVLIPAGRCPL
ASSIGNED LABEL: condition met
//
SUBSTANCE: ELLFFYYMSSNCFVFISCSQ
ASSIGNED LABEL: condition met
//
SUBSTANCE: SWAIRALKFVWIA
ASSIGNED LABEL: condition not met
//
SUBSTANCE: IDNGDCYNDRVLADTVS
ASSIGNED LABEL: condition not met
//
SUBSTANCE: VCILFSAPDNMWFFSD
ASSIGNED LABEL: condition met
//
SUBSTANCE: YIIWVYCVRMNSLHELLAMS
ASSIGNED LABEL: condition met
//
SUBSTANCE: NSSKAMKKQVHLLFFRK
ASSIGNED LABEL: condition met

## Input Decide: is the reported value of amyloid nucleation score for DGYGLIFW equal to or greater than 0.1?
## Output condition not met

## Input Please indicate if the recorded amyloid nucleation score for DVVTSGILTASSRWYVRRGR meets or exceeds 0.1.
## Output condition not met

## Input # bool: amyloid nucleation score of AHFVRVDHNGGGLCMLGISR >= 0.1
## Output condition not met

* * *

Collected amyloid nucleation score values appear next to each entry.
- PROTOCOL: amyloid nucleation score (Sup35N fusion, yeast selection) (log enrichment); library NNK1; higher = more nucleation; inactive = no reads after selection
// keep it numeric: no unit symbol after the value

SUBSTANCE: IWFLHHEVKF
amyloid nucleation score: 0.603

## Input Determine from records and report amyloid nucleation score for YLWMFCYMYREVAIRVNVGG
## Output 0.1

* * *

Listing of entries alongside the reported amyloid nucleation score.
- PROTOCOL: amyloid nucleation score (Sup35N fusion, yeast selection) (log enrichment); library NNK2; higher = more nucleation; inactive = no reads after selection
# answer = number (no unit)

SUBSTANCE: HYRISLSIPHIDHAKAQALL
amyloid nucleation score: -0.603
--
SUBSTANCE: NWLGCEMPIGGSSSVSAMYL
amyloid nucleation score: 1.17
--
SUBSTANCE: RNTTKWKMMTLTFNCTRRKK
amyloid nucleation score: -0.766
--
SUBSTANCE: SWLIDLTRHSFLI
amyloid nucleation score: -1.25
--
SUBSTANCE: RCGKCGLYS
amyloid nucleation score: 0.067

## Input Give recorded amyloid nucleation score. LMAHTSFVDFGVKN
## Output -0.266

## Input In one line, give reported amyloid nucleation score of the entry PSDFYWSMFEQYCHGV .
## Output 4.51

## Input Look up and report measured amyloid nucleation score for this entry: DQLVLELHWTESILSYVVMP
## Output 0.816

## Input Quick one: give measured amyloid nucleation score for GITFPGFI
## Output 0.115

* * *

- PROTOCOL: amyloid nucleation score (Sup35N fusion, yeast selection) (log enrichment); library NNK3; higher = more nucleation; inactive = no reads after selection
PROPERTY NAME: amyloid nucleation score

These recorded examples may help you get a feel for the data.
SUBSTANCE: SILKGGFCYMNFRSGKWGV
ENDPOINT RESULT: inactive

SUBSTANCE: YPRDWGYALRLYYVEKKLR
ENDPOINT RESULT: inactive

SUBSTANCE: IHFMCMWVSNWYVLLVLKE
ENDPOINT RESULT: inactive

SUBSTANCE: YIYTFYSVSY
ENDPOINT RESULT: 0.201

## Input Return amyloid nucleation score (reported value) for this substance: FVYSCNC
## Output 2.34

## Input For the substance ARTIELMECNISVNSIVWQG , give its reported amyloid nucleation score.
## Output 1.98

## Input Retrieve amyloid nucleation score measured for EATPSSIQAQ and print it.
## Output inactive

## Input Give amyloid nucleation score for the following substance: IWVGRTDFWFWHVTGEDCLG
## Output inactive

## Input Return amyloid nucleation score (reported value) for this substance: KSEFSRSHWESDD
## Output inactive

* * *

- PROTOCOL: amyloid nucleation score (Sup35N fusion, yeast selection) (log enrichment); library NNK2; higher = more nucleation; inactive = no reads after selection
PROPERTY NAME: amyloid nucleation score
Respond numerically, and do not add a unit to the figure.

Study these solved cases before continuing.
SUBSTANCE: MYYLNSFGRELLSGLKCYKT
amyloid nucleation score: -0.698

SUBSTANCE: SLCEFMREGCLLTYWFNKCE
amyloid nucleation score: -0.838

SUBSTANCE: LMYTFVGCSINVCFGGSGCL
amyloid nucleation score: 8.87

SUBSTANCE: IYRKSICYSFVWALFEVAEW
amyloid nucleation score: -0.398

SUBSTANCE: NGVRYYFRVRGSMTRLNEAE
amyloid nucleation score: 0.276

SUBSTANCE: WKGSEELRSGMAYVDGTGGE
amyloid nucleation score: 1.32

## Input Identify measured amyloid nucleation score associated with KPNPFLVLLLRT
## Output -0.123

## Input Identify measured amyloid nucleation score associated with GSVVHQEFFSPSKGFVSSQF
## Output -1.4

## Input // fetch amyloid nucleation score given entry INVHSSSG
## Output 0.344

* * *

- PROTOCOL: amyloid nucleation score (Sup35N fusion, yeast selection) (log enrichment); library NNK3; higher = more nucleation; inactive = no reads after selection
PROPERTY NAME: amyloid nucleation score

Example entries and their recorded answers appear below.
SUBSTANCE: CTGLECIGTAYRQGGDRVLW
amyloid nucleation score: inactive
--
SUBSTANCE: MGGICRASRCCGCPTGRNCL
amyloid nucleation score: 0.665
--
SUBSTANCE: HSMLDFFST
amyloid nucleation score: inactive
--
SUBSTANCE: YFKNGNALCKAFKKRISRKD
amyloid nucleation score: inactive
--
SUBSTANCE: LKNFIKWRGILPFFGTDFWM
amyloid nucleation score: inactive
--
SUBSTANCE: VYVMRGSVIWLCRMSMGCCA
amyloid nucleation score: inactive
--
SUBSTANCE: INLFTAYAVSL
amyloid nucleation score: inactive
--
SUBSTANCE: RGMYMRYLGFLDHLNLRVFC
amyloid nucleation score: inactive
--
SUBSTANCE: WVKNLVFEGHVGA
amyloid nucleation score: inactive
--
SUBSTANCE: FVSEFMTSSTYLVPTVHITV
amyloid nucleation score: inactive

## Input Give the reported value of amyloid nucleation score for this record: CYNGTLGCGYRVLIRVSGSW
## Output inactive
